The following compounds are shown together with reported growth values.
test system: MDA-MB-231 breast; assay: NCI-60 one-dose screen, 48 h (100 = growth as untreated, 0 = no growth, -100 = all killed); details: 10 µM unless noted
The panel holds about 83,000 compounds, 20% with a hit somewhere; the sample as a whole holds those more often. Active and inactive are the calls of the source. Rule for the calls: active = growth percent below 10; inactive = the rest.

C1CCCCNCCC1    101% (inactive)
CC(=O)C(/C=N/C(N)=O)=C(/C)O    96.5% (inactive)
Nc1n[nH]c(=S)n1-c1ccc(Cl)cc1    112% (inactive)
O=[N+]([O-])c1ccc2nc3c4ccccc4c4ccccc4c3nc2c1    70.2% (inactive)

QUERY: Given the compound "O=C(CCc1ccc(O)cc1)N/N=C/c1cc(Br)ccc1O" , what is its reported growth?
RESULT: 59.7% (inactive)

QUERY: Given the compound "CCCCCCCCCCCCCCCCOc1ccc(C)cc1" , what is its reported growth?
RESULT: 100% (inactive)

QUERY: Given the compound "O=C=NC(c1ccccc1)(c1ccccc1)c1ccccc1" , what is its reported growth?
RESULT: 97.5% (inactive)

QUERY: Given the compound "CC1=C(/C=C/C(C)=C/C=C/C(C)=C/C(=O)Nc2ccc(O)cc2)C(C)(C)CCC1" , what is its reported growth?
RESULT: 54.5% (inactive)

QUERY: Given the compound "COc1ccc2ccccc2c1/C=N/N1CCCCC1" , what is its reported growth?
RESULT: 99.4% (inactive)

QUERY: Given the compound "O=C1c2ccccc2C(=O)N1/N=C/c1ccc2c(c1)OCO2" , what is its reported growth?
RESULT: 87.2% (inactive)

QUERY: Given the compound "N#C/C(=C/c1c(O)ccc2ccccc12)C(N)=O" , what is its reported growth?
RESULT: 86.4% (inactive)

QUERY: Given the compound "CCCCCCCCCCCCOc1ccccc1C=O" , what is its reported growth?
RESULT: 102% (inactive)

QUERY: Given the compound "N=C1N=C(N)CS1" , what is its reported growth?
RESULT: 115% (inactive)

QUERY: Given the compound Nc1ccn(C2OC(CO)C(O)C2O)c(=O)n1 (stereo not drawn) , what is its reported growth?
RESULT: 110% (inactive) [middle of 4 runs]

QUERY: Given the compound "Cc1ccc2nc3c(nc2c1)-c1cccc2cccc-3c12" , what is its reported growth?
RESULT: 75.8% (inactive)

QUERY: Given the compound CC(/C=N/N1C(=O)c2ccccc2C1=O)c1ccccc1 (stereo not drawn) , what is its reported growth?
RESULT: 108% (inactive)

QUERY: Given the compound NCCSC(C[N+](=O)[O-])c1ccccc1Cl (stereo not drawn) , what is its reported growth?
RESULT: 115% (inactive)

QUERY: Given the compound "N#C/C(=C1C=C/C(=N/O)C(Br)=C/1)c1ccccc1" , what is its reported growth?
RESULT: 28.1% (inactive)
